// data source = ChEMBL document CHEMBL1150627

experiment: Induction of cleavage arrest in embryonic cells of Xenopus laevis stage 8 blastulae at 0.5 ug/mL after 20 hrs by animal cap assay; format: functional
# Activity per entry

Some entries whose results are on file:
GET /value?item= CCCCC/C=C/C=C/C(=O)O[C@H]1C(C)=C[C@]23C(=O)[C@@H](C=C(CO)[C@@H](O)[C@]12O)[C@H]1[C@@H](C[C@H]3C)C1(C)C &field=Activity returns >75%

Activity recorded for this compound, CCCCC/C=C\C=C\C(=O)OCC1=C[C@@H]2C(=O)[C@]3(C=C(C)[C@H](O)[C@@]3(O)[C@@H]1O)[C@H](C)C[C@@H]1[C@H]2C1(C)C , is >75%

Okay, now this compound:
Record CCCCCCCCCC(=O)OCC1=C[C@@H]2C(=O)[C@]3(C=C(C)[C@H](O)[C@@]3(O)[C@@H]1O)[C@H](C)C[C@@H]1[C@H]2C1(C)C , field Activity: >75%
